Assay: A CellTox Green Cytotoxicity Assay to monitor cytotoxicity in HEK293 cells - 32 hour (AID 1224881); further: nearly all actives have a fitted effect of over 40% in size
Settings: CellTox Green fluorescence; series mostly up to 76.8 µM
Description: National Center for Advancing Translational Sciences [NCATS] NIH Chemical Genomics Center [NCGC] U.S. Environmental Protection Agency [EPA] National Institutes of Environmental Health Sciences [NIEHS] National Toxicology Program [NTP] Cell-based models are critical for drug discovery. […] Viable cells produce no appreciable increases in fluorescence. Therefore, the fluorescence signal produced by the binding interaction with dead cell DNA is proportional to cytotoxicity. […]
Inconclusive results are not listed. Active and inactive are the calls of the source. The call rests on the fitted dose curve; in most records, active means well fitted activation curve with a large enough effect in the repeat runs; inconclusive means weak or mixed curves; inactive means flat fitted curve, though single readings scatter.
Labels: t = active, f = inactive

[[record]]
compound = "C=Cc1ccc(OC(C)=O)cc1"
class_name = "f"

[[record]]
compound = "CCCCCCOC(=O)CCCCC"
class_name = "f"

[[record]]
compound = "O[C@@H](CNC[C@H](O)[C@H]1CCc2cc(F)ccc2O1)[C@@H]1CCc2cc(F)ccc2O1"
class_name = "t"

[[record]]
compound = "C[C@H](CS)C(=O)N1CCC[C@H]1C(=O)O"
class_name = "f"

[[record]]
compound = "CCCCCCCCCCCCCCCC(=O)OCC"
class_name = "f"

[[record]]
compound = "CCc1ccc(C)cc1"
class_name = "f"

[[record]]
compound = "COc1cc(C(C)=O)ccc1OCCCN1CCC(c2noc3cc(F)ccc23)CC1"
class_name = "f"

[[record]]
compound = "CCCCCCCC/C=C/C(=O)O"
class_name = "f"

[[record]]
compound = "CC(C)COC(=O)COc1cc(Cl)c(Cl)cc1Cl"
class_name = "f"

[[record]]
compound = "C=C(C)c1ccccc1"
class_name = "f"

[[record]]
compound = "CC(=O)OCC(=O)[C@@]1(OC(C)=O)[C@@H](C)C[C@H]2[C@@H]3C[C@H](F)C4=CC(=O)C=C[C@]4(C)[C@@]3(F)[C@@H](O)C[C@@]21C"
class_name = "f"

[[record]]
compound = "CC1CCCO1 (centres undefined)"
class_name = "f"

[[record]]
compound = "FC(F)(F)C(F)(F)C(F)(F)C(F)(F)CCI"
class_name = "f"

[[record]]
compound = "COC(OC)OC"
class_name = "f"


---

Assay: qHTS assay to identify small molecule agonists of the sonic hedgehog signaling (Shh) pathway - cell viability counter screen (AID 1259366); further: nearly all actives have a fitted effect of over 50% in size
Settings: NIH/3T3 Gli1-Luc viability, CellTiter-Fluor, 24 h; series mostly up to 92.4 µM
Records with an inconclusive call do not appear. The source made the active and inactive calls. Calls come from the whole dose curve; as a rule, active = well fitted cell-killing curve with a large enough effect in the repeat runs; inconclusive = weak or mixed curves, or effect the other way; inactive = flat fitted curve, though single readings scatter.
Outcome codes: True for active, False for inactive

[[record]]
molecule = "NC(=O)CCCCC(N)=O"
class_name = "False"

[[record]]
molecule = "CC(C)N(C)C"
class_name = "False"

[[record]]
molecule = "ClC1=C(Cl)C1(Cl)Cl"
class_name = "False"

[[record]]
molecule = "O=C1OC(=O)c2c(Br)c(Br)c(Br)c(Br)c21"
class_name = "False"

[[record]]
molecule = "CN1CCCN(C(c2ccccc2)c2ccc(Cl)cc2)CC1 (configuration not stated)"
class_name = "True"

[[record]]
molecule = "CS(=O)(=O)c1ccc([C@@H](C[C@H]2CCC(=O)C2)C(=O)Nc2cnccn2)cc1Cl"
class_name = "False"

[[record]]
molecule = "CC[C@@H](CO)NCCN[C@@H](CC)CO"
class_name = "False"


---

Target: Bile acid receptor (Homo sapiens) (UniProt Q96RI1)
Sequence (Q96RI1 whole entry, looked up): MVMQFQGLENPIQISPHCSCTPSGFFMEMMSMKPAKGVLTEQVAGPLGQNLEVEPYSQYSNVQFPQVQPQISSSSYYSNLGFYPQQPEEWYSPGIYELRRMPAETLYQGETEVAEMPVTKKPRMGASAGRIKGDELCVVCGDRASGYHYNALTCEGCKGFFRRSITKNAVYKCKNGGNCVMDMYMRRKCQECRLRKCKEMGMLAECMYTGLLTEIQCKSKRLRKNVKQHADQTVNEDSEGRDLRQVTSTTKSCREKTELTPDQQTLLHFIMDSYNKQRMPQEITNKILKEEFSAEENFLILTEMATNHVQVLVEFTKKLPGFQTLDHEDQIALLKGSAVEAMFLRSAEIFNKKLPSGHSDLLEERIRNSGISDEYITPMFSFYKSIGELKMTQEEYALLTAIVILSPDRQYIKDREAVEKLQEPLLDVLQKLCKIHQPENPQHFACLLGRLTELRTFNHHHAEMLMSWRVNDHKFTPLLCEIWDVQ
Test: qHTS assay to identify small molecule agonists of the farnesoid-X-receptor (FXR) signaling pathway (AID 743220); further: on the % scale 0 is the no-effect control and ±100 the full control effect
Details: HEK293T FXR-UAS-bla, beta-lactamase FRET ratio, 16 h; series mostly up to 62.6 µM
Inconclusive results are not listed. Activity calls are given as the source filed them. The call rests on the fitted dose curve; in most records, active means well fitted activation curve with a large enough effect in the signal ratio in the repeat runs (not every such curve was filed as active); inconclusive means weak or mixed curves, or effect the other way; inactive means flat fitted curve, though single readings scatter; the % refers to the signal ratio.
reported.endpoint: outcome

[[record]]
compound = "CC(C)(C)S"
result = "inactive"

[[record]]
compound = "c1ccc2sc(SSc3nc4ccccc4s3)nc2c1"
result = "inactive"

[[record]]
compound = "Cc1ccc(NC(=O)N(C)C)cc1NC(=O)N(C)C"
result = "inactive"

[[record]]
compound = "O=[N+]([O-])c1ccc2ncccc2c1"
result = "inactive"

[[record]]
compound = "CC(=O)c1ccc[nH]1"
result = "inactive"

[[record]]
compound = "O=C(O)c1ccc(O)cc1O"
result = "inactive"

[[record]]
compound = "CCC(=O)OCc1ccc(OC)cc1"
result = "inactive"

[[record]]
compound = "CC(C)OC(=O)c1ccccc1C(=O)OC(C)C"
result = "inactive"

[[record]]
compound = "CCOC(=O)C(C)O (stereo unspecified)"
result = "inactive"

[[record]]
compound = "CC(C)COC(=O)c1ccc(O)cc1"
result = "inactive"

[[record]]
compound = "CC(=O)NNC(C)=O"
result = "inactive"


---

Experiment: qHTS assay for small molecule agonists of the p53 signaling pathway (AID 651631); further: nearly all actives have a fitted effect of over 15% in size
Settings: HCT-116 p53RE-bla reporter, beta-lactamase FRET ratio, 16 h; series mostly up to 73.3 µM
Excerpt: U.S. Tox21 Program National Center for Advancing Translational Sciences [NCATS] NIH Chemical Genomics Center [NCGC] U.S. Environmental Protection Agency [EPA] National Institutes of Environmental Health Sciences [NIEHS] National Toxicology Program [NTP] U.S. Food and Drug Administration [FDA] […] The activation of the reporter gene under culture conditions can be detected by fluorescence intensity. […]
Inconclusive results are not listed. Activity calls are given as the source filed them. Calls come from the whole dose curve.
Possible outcomes: active, inactive

[[record]]
compound = "Cc1ccc2nc(N)[nH]c(=O)c2c1Sc1ccncc1"
class_name = "active"

[[record]]
compound = "COc1ccc(-c2cc(C(F)F)nn2-c2ccc(S(N)(=O)=O)cc2)cc1F"
class_name = "inactive"

[[record]]
compound = "CCNc1nc(N)nc(Cl)n1"
class_name = "inactive"

[[record]]
compound = "Cc1cccc2sc(N)nc12"
class_name = "inactive"

[[record]]
compound = "C1=CCC2CC=CC2C1 (stereo unspecified)"
class_name = "inactive"

[[record]]
compound = "Nc1nc(-c2ccc([N+](=O)[O-])cc2)cs1"
class_name = "inactive"


---

Assay: qHTS RealTime-Glo MT Cell Viability Assay in HepG2 cells - 8 hour (AID 1224873); further: on the % scale 0 is the no-effect control and ±100 the full control effect; nearly all actives have a fitted effect of over 55% in size
Conditions: RealTime-Glo luminescence; series mostly up to 76.8 µM
Records with an inconclusive call do not appear. Activity calls are given as the source filed them. Calls come from the whole dose curve; as a rule, active = well fitted cell-killing curve with a large enough effect in the repeat runs; inconclusive = weak or mixed curves; inactive = flat fitted curve, though single readings scatter.
reported.endpoint: viability change, negative = cytotoxic

[[record]]
compound = "C[C@@H]1C[C@H]2[C@@H]3CCC4=CC(=O)C=C[C@]4(C)[C@@]3(F)[C@@H](O)C[C@]2(C)[C@@]1(O)C(=O)COP(=O)(O)O"
result = "inactive"

[[record]]
compound = "CCN(Cc1cccc(S(=O)(=O)O)c1)c1ccc(C(=C2C=CC(=[N+](CC)Cc3cccc(S(=O)(=O)O)c3)C=C2)c2ccccc2S(=O)(=O)[O-])cc1"
result = "inactive"

[[record]]
compound = "CC12CC3CC(C)(C1)CC(N)(C3)C2"
result = "inactive"

[[record]]
compound = "Cc1cccc(C)c1NC(=O)c1cc(S(N)(=O)=O)c(Cl)cc1O"
result = "inactive"

[[record]]
compound = "COc1ccc(-n2nc(C(F)F)cc2-c2ccc(S(C)=O)cc2)cc1 (stereo not given)"
result = "inactive"


---

Experiment: qHTS assay for small molecule agonists of the antioxidant response element (ARE) signaling pathway (AID 743202); on activation: on the % scale 0 is the no-effect control and ±100 the full control effect
Conditions: HepG2 ARE-bla reporter, beta-lactamase FRET, 16 h; series mostly up to 73.3 µM
Records with an inconclusive call do not appear. Activity calls are given as the source filed them. Calls follow the shape of the dose curve; as a rule, active = well fitted activation curve with a large enough effect in the signal ratio in the repeat runs (not every such curve was filed as active); inconclusive = weak or mixed curves, or effect the other way; inactive = no such curve, though single readings can be large or run the other way; the % refers to the signal ratio.
Outcomes: 1 (active), -1 (inactive)

[[record]]
compound = "C[C@H](CS)C(=O)N1CCC[C@H]1C(=O)O"
class_name = -1

[[record]]
compound = "CC[C@H]1OC(=O)[C@H](C)[C@@H](O[C@H]2C[C@@](C)(OC)[C@@H](O)[C@H](C)O2)[C@H](C)[C@@H](O[C@@H]2O[C@H](C)C[C@H](N(C)C)[C@H]2O)[C@](C)(O)C[C@@H](C)C(=O)[C@H](C)[C@@H](O)[C@]1(C)O"
class_name = -1

[[record]]
compound = "COc1ccc(-n2nc(C(F)F)cc2-c2ccc(S(C)=O)cc2)cc1 (centres undefined)"
class_name = -1

[[record]]
compound = "CCCc1nc2c(C)cc(-c3nc4ccccc4n3C)cc2n1Cc1ccc(-c2ccccc2C(=O)O)cc1"
class_name = 1


---

// Potency lookup, one value per entry
Assay: qHTS assay to identify small molecule antagonists of the androgen receptor (AR) signaling pathway using the MDA cell line in the presence of 0.5 nM R1881 - cell viability counter screen (AID 1259242); further: potency means the concentration at half of the fitted maximal effect; nearly all actives have a fitted effect of over 45% in size
Settings: MDA-kb2 viability, CellTiter-Fluor protease fluorescence, 16 h; series mostly up to 92.4 µM
Results filed as inconclusive are left out. The source made the active and inactive calls. Calls come from the whole dose curve; as a rule, active = well fitted cell-killing curve with a large enough effect in the repeat runs; inconclusive = weak or mixed curves, or effect the other way; inactive = flat fitted curve, though single readings scatter.
reported.endpoint: Potency

[[record]]
molecule = "CO[C@@H]1[C@@H](OC)[C@H](C)[C@@](O)(CC(=O)O)O[C@H]1[C@H](C)[C@H]1O[C@@]2(CC[C@@](C)([C@H]3CC[C@@](C)([C@@H]4O[C@@H]([C@H]5O[C@](C)(O)[C@H](C)C[C@@H]5C)C[C@@H]4OC4C[C@H](OC)[C@@H](OC)[C@H](C)O4)O3)O2)C[C@H](O)[C@H]1C (some centres undefined)"
reported_endpoint = "Potency"
result = "1.68 µM (active)"

[[record]]
molecule = "CCN(Cc1cccc(S(=O)(=O)O)c1)c1ccc(C(=C2C=CC(=[N+](CC)Cc3cccc(S(=O)(=O)O)c3)C=C2)c2ccc(O)cc2S(=O)(=O)[O-])cc1"
reported_endpoint = "Potency"
result = "18.6 µM (active)"

[[record]]
molecule = "Cc1c(C2(c3cc(Br)c(O)c(Br)c3C)OS(=O)(=O)c3ccccc32)cc(Br)c(O)c1Br"
reported_endpoint = "Potency"
result = "10.5 µM (active)"

[[record]]
molecule = "CCN(CC)c1ccc(C(=C2C=CC(=[N+](CC)CC)C=C2)c2ccc(S(=O)(=O)O)cc2S(=O)(=O)[O-])cc1"
reported_endpoint = "Potency"
result = "27.3 µM (active)"

